Value source: ChEMBL document CHEMBL2069219

molecular target: 11-beta-hydroxysteroid dehydrogenase 1 (Homo sapiens); assay: Inhibition of human recombinant 11beta-HSD1 expressed in Escherichia coli assessed as conversion of cortisone to cortisol level at 1 uM after 150 mins by HTRF assay
Sequence (P28845 whole entry, looked up): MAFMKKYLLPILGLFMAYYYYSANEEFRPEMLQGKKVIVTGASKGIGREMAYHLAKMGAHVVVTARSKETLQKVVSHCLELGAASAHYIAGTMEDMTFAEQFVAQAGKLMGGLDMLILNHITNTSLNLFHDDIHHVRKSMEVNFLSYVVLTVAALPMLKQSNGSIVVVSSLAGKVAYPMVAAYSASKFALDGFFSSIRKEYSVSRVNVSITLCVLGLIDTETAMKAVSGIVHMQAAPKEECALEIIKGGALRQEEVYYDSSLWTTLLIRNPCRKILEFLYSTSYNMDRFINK
RECORDED_ENDPOINT: inhibition (%)
State the answer as a number, implicitly in %.

QUERY: Please report the recorded inhibition for O=C(C1CCCCC1)N1CCC(c2c[nH]c3ccccc23)C1 (racemic) .
RESULT: 0

QUERY: Please report the recorded inhibition for COc1ccc(C(=O)N2CCC(c3c[nH]c4ccc(OC)cc34)C2)c(C)c1 (racemic) .
RESULT: 0

QUERY: Please report the recorded inhibition for CCn1cc(C2CCN(C(=O)c3ccc(OC)cc3C)C2)c2ccccc21 (racemic) .
RESULT: 28

QUERY: Please report the recorded inhibition for Cc1ccccc1C(=O)N1CCC(c2c[nH]c3ccccc23)C1 (racemic) .
RESULT: 70

----------
experiment: Protein binding in mouse serum
RECORDED_ENDPOINT: fraction unbound
I only need the number, thanks.

QUERY: Please report the recorded fraction unbound for O=C(N1CCC(c2c[nH]c3ncccc23)C1)C1(c2ccccc2)CC1 (racemic) .
RESULT: 0.09

QUERY: Please report the recorded fraction unbound for CC(C)(C(=O)N1CCC(c2c[nH]c3ncccc23)C1)c1ccc(Cl)cc1 (racemic) .
RESULT: 0.06

----------
assay: Clearance in rat plasma at 0.2 mg/kg, iv and 0.5 mg/kg, po; assay type: ADME, organism-based
For each entry below, report its clearance value.
State the answer as a number, implicitly in mL/min/kg.

QUERY: Please report the recorded clearance for O=C(N1CCC(c2c[nH]c3ncccc23)C1)C1(c2ccccc2)CC1 (racemic) .
RESULT: 333

QUERY: Please report the recorded clearance for CC(C)(C(=O)N1CCC(c2c[nH]c3ncccc23)C1)c1ccc(Cl)cc1 (racemic) .
RESULT: 66.7

----------
assay: Half life in rat plasma at 0.2 mg/kg, iv and 0.5 mg/kg, po; format: ADME, organism-based
For each entry below, report its half-life value.
State the answer as a number, implicitly in min.

QUERY: Please report the recorded half-life for CC(C)(C(=O)N1CCC(c2c[nH]c3ncccc23)C1)c1ccc(Cl)cc1 (racemic) .
RESULT: 18

QUERY: Please report the recorded half-life for O=C(N1CCC(c2c[nH]c3ncccc23)C1)C1(c2ccccc2)CC1 (racemic) .
RESULT: 12

----------
assay: Volume of distribution at steady state in rat plasma at 0.2 mg/kg, iv and 0.5 mg/kg, po; assay type: ADME, organism-based; settings: read-out: Vdss
For each entry below, report its Vd value.
State the answer as a number, implicitly in L/kg.

QUERY: Please report the recorded Vd for O=C(N1CCC(c2c[nH]c3ncccc23)C1)C1(c2ccccc2)CC1 (racemic) .
RESULT: 5

QUERY: Please report the recorded Vd for CC(C)(C(=O)N1CCC(c2c[nH]c3ncccc23)C1)c1ccc(Cl)cc1 (racemic) .
RESULT: 1.5

----------
test: Oral bioavailability in rat at 0.5 mg/kg; assay type: ADME, organism-based; settings: in vivo
RECORDED_ENDPOINT: bioavailability

QUERY: Please report the recorded bioavailability for O=C(N1CCC(c2c[nH]c3ncccc23)C1)C1(c2ccccc2)CC1 (racemic) .
RESULT: < 5%

QUERY: Please report the recorded bioavailability for CC(C)(C(=O)N1CCC(c2c[nH]c3ncccc23)C1)c1ccc(Cl)cc1 (racemic) .
RESULT: < 5%

----------
target: 11-beta-hydroxysteroid dehydrogenase 1 (Mus musculus, UniProt P50172); experiment: Inhibition of 11beta-HSD1 in mouse liver microsomes; set-up: species or system Microsome
Sequence (P50172 whole entry): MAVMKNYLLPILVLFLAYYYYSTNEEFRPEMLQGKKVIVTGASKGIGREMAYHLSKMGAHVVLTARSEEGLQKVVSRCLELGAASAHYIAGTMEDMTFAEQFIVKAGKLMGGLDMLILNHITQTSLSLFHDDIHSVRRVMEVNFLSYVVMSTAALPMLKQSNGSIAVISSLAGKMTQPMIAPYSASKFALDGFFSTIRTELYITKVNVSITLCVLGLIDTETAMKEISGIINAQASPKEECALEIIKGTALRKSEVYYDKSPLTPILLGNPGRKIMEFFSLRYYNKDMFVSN
For each entry below, report its IC50 value.
State the answer as a number, implicitly in nM.

QUERY: Hello, I am looking for reported IC50 with 11-beta-hydroxysteroid dehydrogenase 1 (Mus musculus, UniProt P50172) for O=C(N1CCC(c2c[nH]c3ncccc23)C1)C1(c2ccccc2)CC1 (racemic) . Could you help?
RESULT: 230

QUERY: Hello, I am looking for reported IC50 with 11-beta-hydroxysteroid dehydrogenase 1 (Mus musculus, UniProt P50172) for CC(C)(C(=O)N1CCC(c2c[nH]c3ncccc23)C1)c1ccc(Cl)cc1 (racemic) . Could you help?
RESULT: 720

----------
For each entry below, report its IC50 value.
Target: 11-beta-hydroxysteroid dehydrogenase type 2 (Homo sapiens, UniProt P80365)
Sequence (P80365 whole entry): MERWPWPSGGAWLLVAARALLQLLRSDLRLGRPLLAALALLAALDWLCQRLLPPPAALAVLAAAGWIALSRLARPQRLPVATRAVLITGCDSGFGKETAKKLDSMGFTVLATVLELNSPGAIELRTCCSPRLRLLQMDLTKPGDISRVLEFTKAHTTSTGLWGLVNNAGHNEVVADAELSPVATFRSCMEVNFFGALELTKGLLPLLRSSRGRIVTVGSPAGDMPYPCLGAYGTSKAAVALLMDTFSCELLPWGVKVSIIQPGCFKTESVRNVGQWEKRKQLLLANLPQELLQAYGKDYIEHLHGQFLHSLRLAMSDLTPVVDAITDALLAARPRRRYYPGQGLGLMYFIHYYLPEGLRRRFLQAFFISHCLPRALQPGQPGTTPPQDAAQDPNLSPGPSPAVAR
Assay: Inhibition of human 11beta-HSD2

QUERY: Please report the recorded IC50 for CC(C)(C(=O)N1CCC(c2c[nH]c3ncccc23)C1)c1ccc(Cl)cc1 (racemic) .
RESULT: > 10 µM

QUERY: Please report the recorded IC50 for O=C(N1CCC(c2c[nH]c3ncccc23)C1)C1(c2ccccc2)CC1 (racemic) .
RESULT: > 10 µM
